# Tested on: HCV 1b genotype
# assay.comment: HCV replicon assay (HCV-neo replicon cells, wild-type)
# Type: cell-based, Hepatitis C virus
# experimental.context: Hepatitis C virus, HCV 1b genotype replicon; class symbol; read-out: EC50 Range against HCV 1b
Reported EC50 is given for each of the following molecules.

Some molecules with known EC50 results, for comparison:
C[C@H](NC(=O)[C@](C)(O)c1ccccc1)C(=O)Nc1ccc(-c2cc(-c3ccc(NC(=O)[C@H](C)NC(=O)[C@](C)(O)c4ccccc4)cc3)[nH]n2)cc1 [OL-46]	4.57 to 99 nM
O=C(Nc1ccc(-c2cc(-c3ccc(NC(=O)[C@@H]4CCCN4C(=O)[C@H](O)c4ccccc4Cl)cc3)[nH]n2)cc1)[C@@H]1CCCN1C(=O)[C@H](O)c1ccccc1Cl [JG-36]	< 4.57 nM
O=C(Nc1ccc(-c2cc(-c3ccc(NC(=O)[C@@H]4CCCN4C(=O)c4ccncc4)cc3)[nH]n2)cc1)[C@@H]1CCCN1C(=O)c1ccncc1 [OL-34]	1000 to 10000 nM
CO[C@H](C(=O)N1CCC[C@H]1C(=O)Nc1ccc(-c2cnc(-c3ccc(NC(=O)[C@@H]4CCCN4C(=O)[C@@H](OC)c4ccccc4)cc3)o2)cc1)c1ccccc1 [JG-19]	4.57 to 99 nM
COc1cccc(C(=O)N2CCC[C@H]2C(=O)Nc2ccc(-c3nnc(-c4ccc(NC(=O)[C@@H]5CCCN5C(=O)c5cccc(OC)c5)cc4)o3)cc2)c1 [RK-7]	100 to 999 nM
O=C(Nc1ccc(-c2cnc(-c3ccc(NC(=O)[C@@H]4CCCN4C(=O)C4(Cc5ccccc5)CCCN4)cc3)o2)cc1)[C@@H]1CCCN1C(=O)C1(Cc2ccccc2)CCCN1 (stereo partly drawn) [Example D-37]	1000 to 10000 nM
C[C@H](NC(=O)c1cc(Cl)cc2ccccc12)C(=O)Nc1ccc(-c2cc(-c3ccc(NC(=O)[C@H](C)NC(=O)c4cc(Cl)cc5ccccc45)cc3)[nH]n2)cc1 [OL-47]	4.57 to 99 nM
Cc1nc(-c2ccc(NC(=O)[C@H](C)NC(=O)OCc3ccccc3)cc2)c(-c2ccc(NC(=O)[C@H](C)NC(=O)OCc3ccccc3)cc2)o1 [OL-4]	100 to 999 nM
O=C(Nc1ccc(-c2nc[nH]c2-c2ccc(NC(=O)[C@@H]3CCCN3C(=O)c3nc(Cl)cc4ccccc34)cc2)cc1)[C@@H]1CCCN1C(=O)c1nc(Cl)cc2ccccc12 [JG-49]	1000 to 10000 nM
O=C(Nc1ccc(-c2ccc(-c3ccc(NC(=O)[C@@H]4CCCN4C(=O)c4nc(Cl)cc5ccccc45)cc3)o2)cc1)[C@@H]1CCCN1C(=O)c1nc(Cl)cc2ccccc12 [JG-61]	1000 to 10000 nM

Attention now shifts to the item below.
Report EC50 for CC(C)[C@H](NC(=O)Cc1ccccc1)C(=O)Nc1ccc(-c2cnc(-c3ccc(NC(=O)[C@@H](NC(=O)Cc4ccccc4)C(C)C)cc3)o2)cc1 [JG-12]
4.57 to 99 nM

* * *

# Tested on: HCV 1b genotype
# assay.comment: HCV replicon assay (HCV-neo replicon cells, wild-type)
# Format: cell-based, Hepatitis C virus
# experimental.context: Hepatitis C virus, HCV 1b genotype replicon; class symbol; read-out: EC50 Range against HCV 1b
measured.attribute: EC50

CCOC(=O)Cc1nc(-c2ccc(NC(=O)[C@@H]3CCCN3C(=O)OCc3ccccc3)cc2)c(-c2ccc(NC(=O)[C@@H]3CCCN3C(=O)OCc3ccccc3)cc2)o1	1 to 10 µM
COc1cccc2c(C(=O)N3CCC[C@H]3C(=O)Nc3ccc(-c4nc[nH]c4-c4ccc(NC(=O)[C@@H]5CCCN5C(=O)c5nc(Cl)cc6c(OC)cccc56)cc4)cc3)nc(Cl)cc12	0.1 to 0.999 µM
COc1cccc2c(C(=O)N3CCC[C@H]3C(=O)Nc3ccc(-c4ccc(-c5ccc(NC(=O)[C@@H]6CCCN6C(=O)c6nc(Cl)cc7c(OC)cccc67)cc5)o4)cc3)nc(Cl)cc12	1 to 10 µM
Cc1nc(-c2ccc(NC(=O)[C@@H]3CCCN3C(=O)Cc3ccccc3)cc2)c(-c2ccc(NC(=O)[C@@H]3CCCN3C(=O)Cc3ccccc3)cc2)s1	0.00457 to 0.099 µM

Report EC50 for CCc1ccccc1C(=O)N1CC=C[C@H]1C(=O)Nc1ccc(-c2ncc(-c3ccc(NC(=O)[C@@H]4CCCN4C(C)=O)cc3)o2)cc1
0.1 to 0.999 µM

* * *

Reported pEC50 is given for each of the following compounds.
# System: HCV 1b genotype
# assay.comment: HCV replicon assay (HCV-neo replicon cells, wild-type)
# Type: cell-based, Hepatitis C virus
# experimental.context: Hepatitis C virus, HCV 1b genotype replicon; class symbols; read-out: EC50 Range against HCV 1b
pEC50: −log10 of the molar value.

Some compounds with known pEC50 results, for comparison:
CC[C@@H](C(=O)N1CCC[C@H]1C(=O)Nc1ccc(-c2cnc(-c3ccc(NC(=O)[C@@H]4CCCN4C(=O)[C@H](CC)c4ccccc4)cc3)o2)cc1)c1ccccc1	7.00 to 8.34
O=C(Nc1ccc(-c2cnc(-c3ccc(NC(=O)[C@@H]4CCCN4C(=O)C(O)Cc4c[nH]c5ccccc45)cc3)o2)cc1)[C@@H]1CCCN1C(=O)C(O)Cc1c[nH]c2ccccc12 (stereo partly drawn)	6.00 to 7.00

Report pEC50 for O=C(Nc1ccc(-c2cnc(-c3ccc(NC(=O)[C@@H]4CCCN4C(=O)c4ccccn4)cc3)o2)cc1)[C@@H]1CCCN1C(=O)c1ccccn1
5.00 to 6.00

* * *

# Tested on: HCV 1b genotype
# assay.comment: HCV replicon assay (HCV-neo replicon cells, wild-type)
# Type: cell-based, Hepatitis C virus
# experimental.context: Hepatitis C virus, HCV 1b genotype replicon; class symbol; read-out: EC50 Range against HCV 1b
# Description: An HCV Replicon assay was utilized in the present disclosure, and was prepared, conducted and validated as described in commonly owned PCT/US2006/022197 and in O'Boyle et al., Antimicrob. Agents Chemother, 49(4):1346-1353 (April 2005). […] The compounds were determined to have differing degrees of reduced inhibitory activity on cells containing mutations vs. the corresponding inhibitory potency against wild-type cells. […]
pEC50: −log10 of the molar value.
measured.attribute: pEC50

Some molecules with known pEC50 results, for comparison:
CC(=O)N1CCC[C@H]1C(=O)Nc1ccc(-c2nnc(-c3ccc(NC(=O)[C@@H]4CCCN4C(=O)Cc4ccccc4)cc3)o2)cc1	5.00 to 6.00
CC(=O)N1CCC[C@H]1C(=O)Nc1ccc(-c2cnc(-c3ccc(NC(=O)[C@@H]4CCCN4C(C)=O)cc3)o2)cc1	5.00 to 6.00
COc1ccccc1C(=O)N1CCC[C@H]1C(=O)Nc1ccc(-c2nnc(-c3ccc(NC(=O)[C@@H]4CCCN4C(=O)c4ccccc4OC)cc3)o2)cc1	6.00 to 7.00
CN(C)[C@@H](C(=O)N1CCC[C@@H]1C(=O)N1CCC[C@H]1C(=O)Nc1ccc(-c2cnc(-c3ccc(NC(=O)[C@@H]4CCCN4C(=O)[C@H]4CCCN4C(=O)[C@@H](c4ccccc4)N(C)C)cc3)o2)cc1)c1ccccc1	5.00 to 6.00
C[C@@](O)(C(=O)N1CCC[C@H]1C(=O)Nc1ccc(-c2cc(-c3ccc(NC(=O)[C@@H]4CCCN4C(=O)[C@@](C)(O)c4ccccc4)cc3)[nH]n2)cc1)c1ccccc1	> 8.34
CSCC[C@H](NC(=O)Cc1ccccc1)C(=O)Nc1ccc(-c2cnc(-c3ccc(NC(=O)[C@H](CCSC)NC(=O)Cc4ccccc4)cc3)o2)cc1	6.00 to 7.00
O=C(Nc1ccc(-c2cnc(-c3ccc(NC(=O)[C@@H]4C[C@@H](O)CN4C(=O)Cc4ccccc4)cc3)o2)cc1)[C@@H]1C[C@@H](O)CN1C(=O)Cc1ccccc1	> 8.34
O=C(Nc1ccc(-c2cnc(-c3ccc(NC(=O)[C@@H]4CCCCN4C(=O)Cc4ccccc4)cc3)o2)cc1)[C@@H]1CCCCN1C(=O)Cc1ccccc1	6.00 to 7.00
CC(=O)N1CCC[C@H]1C(=O)Nc1ccc(-c2nnc(-c3ccc(NC(=O)[C@@H]4CCCN4C(=O)Cc4cccnc4)cc3)o2)cc1	5.00 to 6.00
O=C(Nc1ccc(-c2cc(-c3ccc(NC(=O)[C@@H]4CCCN4C(=O)C4CC4)cc3)[nH]n2)cc1)[C@@H]1CCCN1C(=O)C1CC1	5.00 to 6.00

Report pEC50 for CC(=O)N1CCC[C@H]1C(=O)Nc1ccc(-c2cc(-c3ccc(NC(=O)[C@@H]4CCCN4C(C)=O)cc3)n(C)n2)cc1
5.00 to 6.00

* * *

Reported EC50 is given for each of the following molecules.
# Test system: HCV 1b genotype
# assay.comment: HCV replicon assay (HCV-neo replicon cells, wild-type)
# Assay type: cell-based, Hepatitis C virus
# experimental.context: Hepatitis C virus, HCV 1b genotype replicon; class symbols; read-out: EC50 Range against HCV 1b

Some molecules with known EC50 results, for comparison:
Cc1cccc(CC(=O)N2C[C@H](O)C[C@H]2C(=O)Nc2ccc(-c3cnc(-c4ccc(NC(=O)[C@@H]5C[C@@H](O)CN5C(=O)Cc5cccc(C)c5)cc4)o3)cc2)c1	100 to 999 nM
CC(C)(CCl)C(=O)N1CCC[C@H]1C(=O)Nc1ccc(-c2cnc(-c3ccc(NC(=O)[C@@H]4CCCN4C(=O)C(C)(C)CCl)cc3)o2)cc1	100 to 999 nM
O=C(Nc1ccc(-c2cnc(-c3ccc(NC(=O)[C@@H]4CCCN4C(=O)C(O)C(F)(F)F)cc3)o2)cc1)[C@@H]1CCCN1C(=O)C(O)C(F)(F)F (stereo partly drawn)	100 to 999 nM
O=C(Nc1ccc(-c2cnc(-c3ccc(NC(=O)[C@@H]4CCCN4C(=O)C(O)Cc4cccnc4)cc3)o2)cc1)[C@@H]1CCCN1C(=O)C(O)Cc1cccnc1 (stereo partly drawn)	1000 to 10000 nM
O=C(Nc1ccc(-c2cnc(-c3ccc(NC(=O)[C@@H]4CCCN4C(=O)C(O)c4cccs4)cc3)o2)cc1)[C@@H]1CCCN1C(=O)C(O)c1cccs1 (stereo partly drawn)	< 4.57 nM
CCc1ccccc1C(=O)N1C[C@H](O)C[C@H]1C(=O)Nc1ccc(-c2cnc(-c3ccc(NC(=O)[C@@H]4C[C@@H](O)CN4C(=O)c4ccccc4CC)cc3)o2)cc1	100 to 999 nM

Attention now shifts to the item below.
Report EC50 for CC(=O)N1CCC(C(=O)N2CCC[C@H]2C(=O)Nc2ccc(-c3cnc(-c4ccc(NC(=O)[C@@H]5CCCN5C(=O)C5CCN(C(C)=O)CC5)cc4)o3)cc2)CC1
100 to 999 nM
